Could you please report measured Percent Effect for the items listed next?
Test system: Wolbachia pipientis
Assay: Anti-Wolbachia Cell-Based Screen
Format: functional
Design: scale not given: in the data most compounds retested in dose-response had high values
Settings: 5 µM
In all, about 48,000 compounds went through this assay and about 13,000 (27%) showed an effect of 50% or more. This is one part of the list.
Answers are plain numbers, in %.

Inquiry: Would you kindly share the measured Percent Effect for `CNC(=O)CCCNCc1c(C(C)C)nn(C)c1N(C)C` ?
Reply text: -0.6366

Respectfully, I request Percent Effect for each entry included below.
1. CCN(CC)c1ncc(Cl)c(C(=O)NC2CCC(O)CC2)n1 (stereo not given)
2. Cc1n[nH]c(C)c1-c1cc(-c2cc[nH]c2)nc(N)c1C#N
3. c1cnnc(N2CCCC2CNc2nc3ccccc3o2)c1 (stereo not given)
4. Cn1cc(-c2c(C#N)c(N)nc3c2CCc2[nH]ccc2-3)cc1C#N
5. CCc1ccc2c(c1)C(CCNC(=O)CSC(F)(F)F)C(=O)N2 (stereo not given)
6. O=C1NCCN1C1CCCN(Cc2nnc(-c3ccc(F)cc3)o2)C1 (stereo not given)
7. CN(C)c1ncc2c(O)nc(C3CCNCC3)cc2n1.Cl

Reply text:
1. -11
2. 123.5
3. 0.7954
4. -2.103
5. 2.698
6. 8.098
7. 122.5

Respectfully, I request Percent Effect for each entry included below.
1. O=S1(=O)CCCN1Cc1coc(-c2cccs2)n1
2. CC(C)n1cnc2c(N3CCCC3)nc(C3CCNCC3)cc21.Cl.Cl
3. c1csc(-c2nc(CN3CCN(c4cnccn4)CC3)co2)c1
4. O=C1NCCN1C1CCCN(Cc2coc(-c3cccs3)n2)C1 (stereo not given)
5. Cl.Cl.Cn1cnc2c(-c3cccnc3)nc(C3CCNCC3)cc21
6. CC(C)Cc1cc(-c2cc(-c3ccc[nH]3)nc(N)c2C#N)n[nH]1
7. Cn1cc(CNC2CC3(CCN(S(C)(=O)=O)CC3)c3ccccc32)cn1.O=C(O)C(F)(F)F (stereo not given)

Reply text:
1. 4.552
2. -3.823
3. -1.577
4. 113.2
5. -57.7
6. 126.8
7. 94.6
